# System: Staphylococcus aureus
# Protocol Text: Antibacterial activity against Staphylococcus aureus ATCC25923 incubated for 16 to 20 hrs by broth microdilution method
# Format: functional
# Applied Conditions: time 16-20 hrs
Readout: MIC (µg/mL)

I = CC[C@H]1OC(=O)C[C@@H](O)[C@H](C)[C@@H](O[C@@H]2O[C@H](C)[C@@H](O)[C@H](N(C)C)[C@H]2O)[C@@H](CCN(Cc2cn(-c3cnc4ccccc4c3)nn2)c2ccccc2)C[C@@H](C)C(=O)/C=C/C(C)=C/[C@@H]1CNCc1ccccc1
II = CC[C@H]1OC(=O)C[C@@H](O)[C@H](C)[C@@H](O[C@@H]2O[C@H](C)[C@@H](O)[C@H](N(C)C)[C@H]2O)[C@@H](CCN(C)Cc2cn(-c3cnc4ccccc4c3)nn2)C[C@@H](C)C(=O)/C=C/C(C)=C/[C@@H]1CNCc1ccc(C)cc1
Among I and II , which shows a numerically higher MIC result? Provide the label of your selected option as the answer.
I

* * *

# Test system: Stenotrophomonas maltophilia
# Protocol Text: Ratio of MBC to MIC for Stenotrophomonas maltophilia ATCC17808 incubated for 20 to 24 hrs
# Format: functional
# Applied Conditions: time 20-24 hrs
Readout: Ratio
// print number alone

Below, 3 compounds whose answers are already recorded.
CC[C@H]1OC(=O)C[C@@H](O)[C@H](C)[C@@H](O[C@@H]2O[C@H](C)[C@@H](O)[C@H](N(C)C)[C@H]2O)[C@@H](CCN(C)Cc2cn(-c3cnc4ccccc4c3)nn2)C[C@@H](C)C(=O)/C=C/C(C)=C/[C@@H]1CNCc1cccc(C)c1 : 8
CC[C@H]1OC(=O)C[C@@H](O)[C@H](C)[C@@H](O[C@@H]2O[C@H](C)[C@@H](O)[C@H](N(C)C)[C@H]2O)[C@@H](CCN2CCCCC2)C[C@@H](C)C(=O)/C=C/C(C)=C/[C@@H]1CN1CCCCC1 : 2
CC[C@H]1OC(=O)C[C@@H](O)[C@H](C)[C@@H](O[C@@H]2O[C@H](C)[C@@H](O)[C@H](N(C)C)[C@H]2O)[C@@H](CCN(C)Cc2cn(-c3cnc4ccccc4c3)nn2)C[C@@H](C)C(=O)/C=C/C(C)=C/[C@@H]1CN(C)Cc1ccccc1 : 4

Give reported Ratio value for "CC[C@H]1OC(=O)C[C@@H](O)[C@H](C)[C@@H](O[C@@H]2O[C@H](C)[C@@H](O)[C@H](N(C)C)[C@H]2O)[C@@H](CCNCc2cn(-c3cnc4ccccc4c3)nn2)C[C@@H](C)C(=O)/C=C/C(C)=C/[C@@H]1CNCc1ccc(C)cc1"
2

* * *

# Tested on: Staphylococcus aureus
# Protocol Text: Antibacterial activity against Staphylococcus aureus ATCC25923 incubated for 16 to 20 hrs by broth microdilution method
# Type: functional
# Applied Conditions: time 16-20 hrs
Readout: MIC (µg/mL)

CC[C@H]1OC(=O)C[C@@H](O)[C@H](C)[C@@H](O[C@@H]2O[C@H](C)[C@@H](O)[C@H](N(C)C)[C@H]2O)[C@@H](CCNCc2cn(-c3cnc4ccccc4c3)nn2)C[C@@H](C)C(=O)/C=C/C(C)=C/[C@@H]1CNCc1ccc(Br)cc1 : 1
CC[C@H]1OC(=O)C[C@@H](O)[C@H](C)[C@@H](O[C@@H]2O[C@H](C)[C@@H](O)[C@H](N(C)C)[C@H]2O)[C@@H](CCNCc2cn(-c3cnc4ccccc4c3)nn2)C[C@@H](C)C(=O)/C=C/C(C)=C/[C@@H]1CN(CC)Cc1ccccc1 : 2
CCCCN(CCCC)C[C@H]1/C=C(C)/C=C/C(=O)[C@H](C)C[C@H](CCN(Cc2cn(-c3cnc4ccccc4c3)nn2)c2ccccc2)[C@H](O[C@@H]2O[C@H](C)[C@@H](O)[C@H](N(C)C)[C@H]2O)[C@@H](C)[C@H](O)CC(=O)O[C@@H]1CC : 1
CC[C@H]1OC(=O)C[C@@H](O)[C@H](C)[C@@H](O[C@@H]2O[C@H](C)[C@@H](O)[C@H](N(C)C)[C@H]2O)[C@@H](CCN(C)Cc2cn(-c3cnc4ccccc4c3)nn2)C[C@@H](C)C(=O)/C=C/C(C)=C/[C@@H]1CN1CCCc2ccccc21 : 2
CCCCN(CCCC)C[C@H]1/C=C(C)/C=C/C(=O)[C@H](C)C[C@H](CCNCc2cn(-c3cnc4ccccc4c3)nn2)[C@H](O[C@@H]2O[C@H](C)[C@@H](O)[C@H](N(C)C)[C@H]2O)[C@@H](C)[C@H](O)CC(=O)O[C@@H]1CC : 2

1 = CC[C@H]1OC(=O)C[C@@H](O)[C@H](C)[C@@H](O[C@@H]2O[C@H](C)[C@@H](O)[C@H](N(C)C)[C@H]2O)[C@@H](CCN(Cc2cn(-c3cnc4ccccc4c3)nn2)c2ccccc2)C[C@@H](C)C(=O)/C=C/C(C)=C/[C@@H]1CN(C)C(C)C
2 = CC[C@H]1OC(=O)C[C@@H](O)[C@H](C)[C@@H](O[C@@H]2O[C@H](C)[C@@H](O)[C@H](N(C)C)[C@H]2O)[C@@H](CCN(C)Cc2cn(-c3cnc4ccccc4c3)nn2)C[C@@H](C)C(=O)/C=C/C(C)=C/[C@@H]1CNc1ccc2ccccc2c1
Problem: Given the entries 1 and 2 , determine which has the lower reported MIC. Provide the label of your selected option as the answer.
1
(1: 0.5 µg/mL, 2: 4 µg/mL)

I = CC[C@H]1OC(=O)C[C@@H](O)[C@H](C)[C@@H](O[C@@H]2O[C@H](C)[C@@H](O)[C@H](N(C)C)[C@H]2O)[C@@H](CCNCc2cn(-c3cnc4ccccc4c3)nn2)C[C@@H](C)C(=O)/C=C/C(C)=C/[C@@H]1CNc1ccc(C)cc1
II = CC[C@H]1OC(=O)C[C@@H](O)[C@H](C)[C@@H](O[C@@H]2O[C@H](C)[C@@H](O)[C@H](N(C)C)[C@H]2O)[C@@H](CCNCc2cn(-c3cnc4ccccc4c3)nn2)C[C@@H](C)C(=O)/C=C/C(C)=C/[C@@H]1CN(C)C
III = CC[C@H]1OC(=O)C[C@@H](O)[C@H](C)[C@@H](O[C@@H]2O[C@H](C)[C@@H](O)[C@H](N(C)C)[C@H]2O)[C@@H](CCNCc2cn(-c3cnc4ccccc4c3)nn2)C[C@@H](C)C(=O)/C=C/C(C)=C/[C@@H]1CN(C)C1CCCCC1
Rank by MIC (largest to smallest). Returns: the labels listed in the requested order.
I, III, II
(I: 2 µg/mL, III: 1 µg/mL, II: 0.5 µg/mL)

P = CC[C@H]1OC(=O)C[C@@H](O)[C@H](C)[C@@H](O[C@@H]2O[C@H](C)[C@@H](O)[C@H](N(C)C)[C@H]2O)[C@@H](CCNCc2cn(-c3cnc4ccccc4c3)nn2)C[C@@H](C)C(=O)/C=C/C(C)=C/[C@@H]1CN1CCCCC1
Q = CC[C@H]1OC(=O)C[C@@H](O)[C@H](C)[C@@H](O[C@@H]2O[C@H](C)[C@@H](O)[C@H](N(C)C)[C@H]2O)[C@@H](CCN(C)Cc2cn(-c3cnc4ccccc4c3)nn2)C[C@@H](C)C(=O)/C=C/C(C)=C/[C@@H]1CN(C)C1CCCCC1
R = CCc1ccc(NC[C@H]2/C=C(C)/C=C/C(=O)[C@H](C)C[C@H](CCN(C)Cc3cn(-c4cnc5ccccc5c4)nn3)[C@H](O[C@@H]3O[C@H](C)[C@@H](O)[C@H](N(C)C)[C@H]3O)[C@@H](C)[C@H](O)CC(=O)O[C@@H]2CC)cc1
Rank by MIC (largest to smallest). Returns: the labels listed in the requested order.
R, Q, P

* * *

# Tested on: Staphylococcus aureus
# Protocol Text: Antibacterial activity against Staphylococcus aureus ATCC25923 incubated for 20 to 24 hrs
# Assay type: functional
# Applied Conditions: time 20-24 hrs
Readout: MIC (µg/mL)
Numeric answer only, unit µg/mL assumed.

CC[C@H]1OC(=O)C[C@@H](O)[C@H](C)[C@@H](O[C@@H]2O[C@H](C)[C@@H](O)[C@H](N(C)C)[C@H]2O)[C@@H](CCN(C)Cc2cn(-c3cnc4ccccc4c3)nn2)C[C@@H](C)C(=O)/C=C/C(C)=C/[C@@H]1CNCc1cccc(C)c1 : 0.5
CC[C@H]1OC(=O)C[C@@H](O)[C@H](C)[C@@H](O[C@@H]2O[C@H](C)[C@@H](O)[C@H](N(C)C)[C@H]2O)[C@@H](CCN(C)Cc2cn(-c3cnc4ccccc4c3)nn2)C[C@@H](C)C(=O)/C=C/C(C)=C/[C@@H]1CN(C)Cc1ccccc1 : 16
CC[C@H]1OC(=O)C[C@@H](O)[C@H](C)[C@@H](O[C@@H]2O[C@H](C)[C@@H](O)[C@H](N(C)C)[C@H]2O)[C@@H](CCN2CCCCC2)C[C@@H](C)C(=O)/C=C/C(C)=C/[C@@H]1CN1CCCCC1 : 0.5

From here, focus on the item given below.
Give reported MIC value for "CC[C@H]1OC(=O)C[C@@H](O)[C@H](C)[C@@H](O[C@@H]2O[C@H](C)[C@@H](O)[C@H](N(C)C)[C@H]2O)[C@@H](CCNCc2cn(-c3cnc4ccccc4c3)nn2)C[C@@H](C)C(=O)/C=C/C(C)=C/[C@@H]1CNCc1ccc(C)cc1"
0.5
